Test system: 857933-349-R-J2-PDC complex spheroids, viability
Assay: Anticancer human tumor 857933-349-R-J2-PDC patient-derived colon adenocarcinoma cell line growth inhibition [GQUAD]
Details: second compound 3.16 µM; first compound 0.1 µM; active compounds read low
Please go through the items and note down their viability, T/C.

1. COc1cc(C2c3cc4c(cc3C(OC3OC5COC(C)OC5C(O)C3O)C3COC(=O)C23)OCO4)cc(OC)c1O (centres undefined) + Cc1[nH]c2ccc(F)cc2c1-c1nc2c3cccnc3c3ncccc3c2[nH]1 :: 65.3%

Would you mind listing viability, T/C for each of the following molecules?
1. COc1ncnc(C2CC2)c1-c1ncc2cnn(Cc3ccc(-c4nc(C(F)(F)F)cn4C(C)C)cc3)c2n1 + Cc1[nH]c2ccc(F)cc2c1-c1nc2c3cccnc3c3ncccc3c2[nH]1
2. C=CC(=O)N1CCN(c2nc(=O)n(-c3c(C)ccnc3C(C)C)c3nc(-c4c(O)cccc4F)c(F)cc23)C(C)C1 (centres undefined) + CN(C)c1ccc(Nc2c3ccc(NC(=O)CCN4CCCC4)cc3nc3cc(NC(=O)CCN4CCCC4)ccc23)cc1
3. Cc1cccc(N(C)C(=O)C2C(O)CCN2c2nc(C)cc(C(F)(F)F)c2C#N)c1 (centres undefined) + CN(C)c1ccc(Nc2c3ccc(NC(=O)CCN4CCCC4)cc3nc3cc(NC(=O)CCN4CCCC4)ccc23)cc1
4. C=CCn1c(=O)c2cnc(Nc3ccc(N4CCN(C)CC4)cc3)nc2n1-c1cccc(C(C)(C)O)n1 + Cc1cnc(CNC(=O)c2c(=O)c3ccc(N4CCCN(C)CC4)nc3n3c2sc2ccccc23)cn1

1: 83.1%; 2: 79.5%; 3: 78.1%; 4: 2.26%

Would you mind listing viability, T/C for each of the following molecules?
1. CC(=O)O[C@H]1C(=O)[C@@]2(C)[C@H]([C@H](OC(=O)c3ccccc3)[C@]3(O)C[C@H](OC(=O)[C@H](O)[C@@H](NC(=O)c4ccccc4)c4ccccc4)C(C)=C1C3(C)C)[C@]1(OC(C)=O)CO[C@@H]1C[C@@H]2O + Cc1cnc(CNC(=O)c2c(=O)c3ccc(N4CCCN(C)CC4)nc3n3c2sc2ccccc23)cn1
2. COc1ccc([C@@H](O)c2cc(-c3ncnc4cc(N5CCOCC5)ccc34)c(F)cc2Cl)nn1 + Cc1cnc(CNC(=O)c2c(=O)c3ccc(N4CCCN(C)CC4)nc3n3c2sc2ccccc23)cn1
3. CC(=O)O[C@H]1C(=O)[C@@]2(C)[C@H]([C@H](OC(=O)c3ccccc3)[C@]3(O)C[C@H](OC(=O)[C@H](O)[C@@H](NC(=O)c4ccccc4)c4ccccc4)C(C)=C1C3(C)C)[C@]1(OC(C)=O)CO[C@@H]1C[C@@H]2O + Cc1[nH]c2ccc(F)cc2c1-c1nc2c3cccnc3c3ncccc3c2[nH]1
4. CC1COCCN1c1cc(C2(S(C)(=N)=O)CC2)nc(-c2ccnc3[nH]ccc23)n1 (centres undefined) + Cc1[nH]c2ccc(F)cc2c1-c1nc2c3cccnc3c3ncccc3c2[nH]1

["2.49%", "2.54%", "16.6%", "96.3%"]

====

Please go through the items and note down their viability, T/C.
Test system: 857933-349-R-J2-PDC complex spheroids, viability
Experiment: Anticancer human tumor 857933-349-R-J2-PDC cell line growth inhibition [GQUAD];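 also: spheroids exposed to compounds for one week before readout; percent viability relative to vehicle DMSO wells taken as 100%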
Conditions: second compound 3.16 µM; first compound 0.00999 µM; active compounds read low
Answers are plain numbers, in %.

1) Cc1[nH]c2ccccc2c1CCNCc1ccc(/C=C/C(=O)NO)cc1 + CN(C)c1ccc(Nc2c3ccc(NC(=O)CCN4CCCC4)cc3nc3cc(NC(=O)CCN4CCCC4)ccc23)cc1 :: 93.5

Would you mind listing viability, T/C for each of the following compounds?
1. CC[C@@]1(O)C(=O)OCc2c1cc1n(c2=O)Cc2cc3c(CN(C)C)c(O)ccc3nc2-1 + Cc1[nH]c2ccc(F)cc2c1-c1nc2c3cccnc3c3ncccc3c2[nH]1
2. CCc1c2c(nc3ccc(O)cc13)-c1cc3c(c(=O)n1C2)COC(=O)[C@]3(O)CC + Cc1[nH]c2ccc(F)cc2c1-c1nc2c3cccnc3c3ncccc3c2[nH]1

88.8
55.9

Ref: PubChem BioAssay AID2060491
